# credit: ChEMBL document CHEMBL1150977

What follows is a collection of Kd values obtained with Tyrosine-protein kinase JAK3 (Homo sapiens).
Sequence (P52333 whole entry): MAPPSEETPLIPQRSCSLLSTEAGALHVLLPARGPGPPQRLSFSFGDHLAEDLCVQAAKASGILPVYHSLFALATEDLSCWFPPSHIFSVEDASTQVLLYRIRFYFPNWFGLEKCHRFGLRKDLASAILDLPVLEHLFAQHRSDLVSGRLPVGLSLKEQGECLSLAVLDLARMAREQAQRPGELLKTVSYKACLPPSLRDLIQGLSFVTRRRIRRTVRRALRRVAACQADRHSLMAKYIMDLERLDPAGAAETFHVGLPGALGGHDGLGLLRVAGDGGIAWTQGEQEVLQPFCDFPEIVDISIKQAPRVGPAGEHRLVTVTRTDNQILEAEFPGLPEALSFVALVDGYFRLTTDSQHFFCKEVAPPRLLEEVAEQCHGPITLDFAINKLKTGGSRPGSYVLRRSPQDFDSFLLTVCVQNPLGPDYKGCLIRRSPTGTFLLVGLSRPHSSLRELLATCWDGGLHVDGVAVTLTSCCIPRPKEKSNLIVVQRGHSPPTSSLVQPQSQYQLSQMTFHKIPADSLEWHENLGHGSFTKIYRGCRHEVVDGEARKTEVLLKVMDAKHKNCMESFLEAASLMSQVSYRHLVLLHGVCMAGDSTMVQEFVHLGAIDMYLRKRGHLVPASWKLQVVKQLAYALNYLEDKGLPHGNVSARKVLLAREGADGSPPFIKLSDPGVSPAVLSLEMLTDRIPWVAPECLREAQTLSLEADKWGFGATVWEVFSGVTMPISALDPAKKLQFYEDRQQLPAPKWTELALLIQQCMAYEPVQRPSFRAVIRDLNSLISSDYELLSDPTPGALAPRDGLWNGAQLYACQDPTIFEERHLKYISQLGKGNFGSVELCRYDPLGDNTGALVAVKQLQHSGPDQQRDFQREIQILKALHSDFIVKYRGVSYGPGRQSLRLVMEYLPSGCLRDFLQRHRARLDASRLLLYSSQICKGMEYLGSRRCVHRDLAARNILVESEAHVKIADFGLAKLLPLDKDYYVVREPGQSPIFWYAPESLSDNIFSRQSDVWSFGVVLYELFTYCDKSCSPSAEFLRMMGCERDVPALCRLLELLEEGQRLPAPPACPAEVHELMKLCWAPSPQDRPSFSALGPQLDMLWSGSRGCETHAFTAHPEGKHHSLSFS

Ask | # get_value(readout= Kd, system= Tyrosine-protein kinase JAK3 (Homo sapiens)) for Oc1ccc(-c2nc(-c3ccncc3)c(-c3ccc(F)cc3)[nH]2)cc1 [SB-202190]
Reply | > 10 µM

Ask | Next compound: CCOc1cc2ncc(C#N)c(Nc3ccc(F)c(Cl)c3)c2cc1NC(=O)/C=C/CN(C)C [PELITINIB]
Reply | 0.025 µM

Ask | Next compound: NC(=O)c1ccc(-c2nc(-c3ccc4c(c3)OCO4)c(-c3ccccn3)[nH]2)cc1 [SB-431542]
Reply | > 10 µM

With those in mind, consider the next compound.
Ask | # get_value(readout= Kd, system= Tyrosine-protein kinase JAK3 (Homo sapiens)) for COCC(=O)NC/C=C/c1ccc2ncnc(Nc3ccc(Oc4ccc(C)nc4)c(C)c3)c2c1 [CP-724714]
Reply | > 10 µM

====

# test.system: Tyrosine-protein kinase ABL1 (Homo sapiens, UniProt P00519, H396P)
endpoint.label: Kd

Field: example entries. Status: answers known.
Ask | For the compound Oc1ccc(-c2nc(-c3ccncc3)c(-c3ccc(F)cc3)[nH]2)cc1 , what Kd is on record?
Reply | > 10 µM

Ask | Next compound: NC(=O)c1ccc(-c2nc(-c3ccc4c(c3)OCO4)c(-c3ccccn3)[nH]2)cc1
Reply | > 10 µM

Continuing:
Ask | For the compound COCC(=O)NC/C=C/c1ccc2ncnc(Nc3ccc(Oc4ccc(C)nc4)c(C)c3)c2c1 , what Kd is on record?
Reply | > 10 µM

====

pKd: −log10 of the molar value.
What follows is a collection of pKd values obtained with Calcium/calmodulin-dependent protein kinase kinase 1 (Homo sapiens, UniProt Q8N5S9).
Sequence (Q8N5S9 whole entry): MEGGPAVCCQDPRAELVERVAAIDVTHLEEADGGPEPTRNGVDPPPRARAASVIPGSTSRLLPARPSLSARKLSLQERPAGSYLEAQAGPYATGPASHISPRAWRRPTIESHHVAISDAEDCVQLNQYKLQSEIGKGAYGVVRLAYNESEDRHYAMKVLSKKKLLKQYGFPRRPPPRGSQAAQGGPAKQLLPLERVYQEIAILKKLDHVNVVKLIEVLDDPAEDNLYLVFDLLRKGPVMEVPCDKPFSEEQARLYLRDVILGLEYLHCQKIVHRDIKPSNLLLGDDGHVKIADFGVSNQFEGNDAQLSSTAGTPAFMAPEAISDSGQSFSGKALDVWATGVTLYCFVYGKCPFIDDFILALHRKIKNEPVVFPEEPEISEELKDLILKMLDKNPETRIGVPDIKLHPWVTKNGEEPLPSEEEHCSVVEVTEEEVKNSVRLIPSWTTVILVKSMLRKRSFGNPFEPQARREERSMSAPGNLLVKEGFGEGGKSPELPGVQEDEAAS

Field: example entries. Status: answers known.
Ask | For the molecule NC(=O)c1ccc(-c2nc(-c3ccc4c(c3)OCO4)c(-c3ccccn3)[nH]2)cc1 , what pKd is on record?
Reply | < 5.00

Ask | Next molecule: CCOc1cc2ncc(C#N)c(Nc3ccc(F)c(Cl)c3)c2cc1NC(=O)/C=C/CN(C)C
Reply | 5.29

Ask | Next molecule: COCC(=O)NC/C=C/c1ccc2ncnc(Nc3ccc(Oc4ccc(C)nc4)c(C)c3)c2c1
Reply | < 5.00

Continuing:
Ask | For the molecule Oc1ccc(-c2nc(-c3ccncc3)c(-c3ccc(F)cc3)[nH]2)cc1 , what pKd is on record?
Reply | < 5.00

====

# test.system: Epidermal growth factor receptor (Homo sapiens, UniProt P00533, G719S)
# Sequence (P00533 25-1210 G719S limits assumed): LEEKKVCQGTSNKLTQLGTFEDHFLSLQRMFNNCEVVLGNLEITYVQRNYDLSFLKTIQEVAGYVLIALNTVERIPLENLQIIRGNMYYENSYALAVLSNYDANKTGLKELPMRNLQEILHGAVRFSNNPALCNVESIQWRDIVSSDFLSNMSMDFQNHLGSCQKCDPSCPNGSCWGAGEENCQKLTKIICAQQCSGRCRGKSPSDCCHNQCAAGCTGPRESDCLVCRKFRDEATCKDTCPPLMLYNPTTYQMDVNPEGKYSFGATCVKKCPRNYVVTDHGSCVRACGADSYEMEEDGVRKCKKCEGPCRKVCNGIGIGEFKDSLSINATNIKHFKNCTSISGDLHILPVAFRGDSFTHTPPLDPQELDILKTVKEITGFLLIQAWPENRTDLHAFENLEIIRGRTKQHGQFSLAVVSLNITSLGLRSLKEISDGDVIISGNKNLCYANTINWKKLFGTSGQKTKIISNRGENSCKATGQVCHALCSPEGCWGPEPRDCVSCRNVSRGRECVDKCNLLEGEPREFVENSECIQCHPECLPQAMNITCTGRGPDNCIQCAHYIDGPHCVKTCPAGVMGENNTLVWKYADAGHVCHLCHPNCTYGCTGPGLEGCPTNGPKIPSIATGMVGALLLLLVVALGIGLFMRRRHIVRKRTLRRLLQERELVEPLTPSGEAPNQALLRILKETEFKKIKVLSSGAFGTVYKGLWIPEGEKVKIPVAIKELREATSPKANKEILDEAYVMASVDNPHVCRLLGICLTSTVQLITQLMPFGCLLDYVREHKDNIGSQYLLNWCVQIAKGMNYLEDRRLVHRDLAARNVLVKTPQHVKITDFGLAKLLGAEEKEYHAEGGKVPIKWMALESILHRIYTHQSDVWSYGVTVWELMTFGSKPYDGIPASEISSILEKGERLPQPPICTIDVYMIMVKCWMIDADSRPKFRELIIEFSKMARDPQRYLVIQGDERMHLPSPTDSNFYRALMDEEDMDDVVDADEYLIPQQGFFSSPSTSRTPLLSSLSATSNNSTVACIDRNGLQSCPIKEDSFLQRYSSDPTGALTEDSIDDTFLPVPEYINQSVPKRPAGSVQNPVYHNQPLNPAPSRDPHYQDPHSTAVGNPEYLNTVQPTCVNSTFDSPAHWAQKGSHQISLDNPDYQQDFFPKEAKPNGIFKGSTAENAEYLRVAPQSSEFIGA
# Kd per record follows

Ask | For the compound Nc1nc(Nc2ccc(S(N)(=O)=O)cc2)nn1C(=O)c1c(F)cccc1F , what Kd is on record?
Reply | > 10 µM

With those in mind, consider the next compound.
Ask | For the compound NC(=O)c1ccc(-c2nc(-c3ccc4c(c3)OCO4)c(-c3ccccn3)[nH]2)cc1 , what Kd is on record?
Reply | > 10 µM

====

# test.system: Aurora kinase C (Homo sapiens)
# Sequence (Q9UQB9 whole entry): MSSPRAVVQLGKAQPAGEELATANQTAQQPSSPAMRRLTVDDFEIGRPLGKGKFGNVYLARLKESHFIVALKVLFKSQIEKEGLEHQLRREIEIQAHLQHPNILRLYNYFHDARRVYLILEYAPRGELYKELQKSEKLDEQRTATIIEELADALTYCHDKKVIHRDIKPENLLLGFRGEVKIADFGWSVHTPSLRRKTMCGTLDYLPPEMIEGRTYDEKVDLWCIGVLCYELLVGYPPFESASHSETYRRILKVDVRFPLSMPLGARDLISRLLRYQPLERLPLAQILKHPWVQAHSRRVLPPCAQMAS
endpoint.label: Kd

Field: example entries. Status: answers known.
Ask | For the compound Oc1ccc(-c2nc(-c3ccncc3)c(-c3ccc(F)cc3)[nH]2)cc1 , what Kd is on record?
Reply | > 10 µM

Ask | Next compound: Nc1nc(Nc2ccc(S(N)(=O)=O)cc2)nn1C(=O)c1c(F)cccc1F
Reply | 0.086 µM

Ask | Next compound: NC(=O)c1ccc(-c2nc(-c3ccc4c(c3)OCO4)c(-c3ccccn3)[nH]2)cc1
Reply | > 10 µM

Ask | Next compound: CCOc1cc2ncc(C#N)c(Nc3ccc(F)c(Cl)c3)c2cc1NC(=O)/C=C/CN(C)C
Reply | > 10 µM

With those in mind, consider the next compound.
Ask | For the compound COCC(=O)NC/C=C/c1ccc2ncnc(Nc3ccc(Oc4ccc(C)nc4)c(C)c3)c2c1 , what Kd is on record?
Reply | > 10 µM
